Assay Overview: qHTS assay to identify small molecule antagonists of the thyroid receptor (TR) signaling pathway - cell viability counter screen (AID 743064); note: nearly all actives have a fitted effect of over 50% in size
Condition Context: GH3.TRE-Luc viability, CellTiter-Fluor, 24 h; series mostly up to 70.3 µM
Results filed as inconclusive are left out. Activity calls are given as the source filed them. Calls come from the whole dose curve; as a rule, active = well fitted cell-killing curve with a large enough effect in the repeat runs; inconclusive = weak or mixed curves, or effect the other way; inactive = no such curve, though single readings can be large or run the other way.

# Record Smiles, outcome
records = [
    ("O=C(O)CCC/C=C\\C[C@@H]1[C@@H](/C=C/[C@@H](O)COc2cccc(C(F)(F)F)c2)[C@H](O)C[C@@H]1O", "inactive"),
    ("CC(=O)[C@@]1(O)CC[C@H]2[C@@H]3C=C(Cl)C4=CC(=O)CC[C@]4(C)[C@H]3CC[C@@]21C", "inactive"),
    ("Cc1cc(Nc2ccccc2C(=O)O)ccc1Cl", "inactive"),
    ("C[C@H]1C[C@@H]2[C@H]([C@@H](O)C[C@@]3(C)[C@H]2CC[C@]3(O)C(=O)COC(=O)CCC(=O)O)[C@@]2(C)C=CC(=O)C=C12", "inactive"),
    ("CC1(C)S[C@@H]2[C@H](NC(=O)[C@H](N)c3ccccc3)C(=O)N2[C@H]1C(=O)OCOC(=O)[C@@H]1N2C(=O)C[C@H]2S(=O)(=O)C1(C)C", "inactive"),
    ("COc1cc2c(cc1OC)[C@@H](c1ccccc1)CN(C)CC2", "inactive"),
    ("CCN(CC)CCOc1ccc2nc(N(C)C)sc2c1", "inactive"),
    ("c1ccc2cc(C3=NCCN3)ccc2c1", "inactive"),
    ("O=P(O)(O)OC[C@H](O)CO", "inactive"),
]
